# pIC50 values compiled below
# Protocol text: Inhibition of Escherichia coli topoisomerase 4-mediated relaxation of supercoiled pBR322 DNA
pIC50: −log10 of the molar value.
Recorded metric: pIC50

{"Compound": "CC[C@H]1OC(=O)[C@H](C)[C@@H](O[C@H]2C[C@@](C)(OC)[C@@H](OCCNCCOCCNc3cc4c(=O)c(C(=O)O)cn(C5CC5)c4cc3Cl)[C@H](C)O2)[C@H](C)[C@@H](O[C@@H]2O[C@H](C)C[C@H](N(C)C)[C@H]2O)[C@](C)(O)C[C@@H](C)CN(C)[C@H](C)[C@@H](O)[C@]1(C)O", "Operator symbol": "=", "Assay value": 4.30}
{"Compound": "CC[C@H]1OC(=O)[C@H](C)C(=O)[C@H](C)[C@@H](O[C@@H]2O[C@H](C)C[C@H](N(C)C)[C@H]2O)[C@](C)(OC)C[C@@H](C)C(=O)[C@H](C)[C@H]2N(CCCCn3cnc(-c4cccnc4)c3)C(=O)O[C@]12C [TELITHROMYCIN]", "Operator symbol": "<", "Assay value": 4.30}
{"Compound": "CC[C@H]1OC(=O)[C@H](C)[C@@H](O[C@H]2C[C@@](C)(OC)[C@@H](OCCNCCOCCNc3cc4c(=O)c(C(=O)O)cn(C5CC5)c4cc3Cl)[C@H](C)O2)[C@H](C)[C@@H](O[C@@H]2O[C@H](C)C[C@H](N(C)C)[C@H]2O)[C@](C)(O)C[C@@H](C)CN(C)[C@H](C)[C@H]2OC(=O)O[C@@]21C", "Operator symbol": "=", "Assay value": 4.22}
{"Compound": "O=C(O)c1cn(C2CC2)c2cc(N3CCNCC3)c(F)cc2c1=O [CIPROFLOXACIN]", "Operator symbol": "=", "Assay value": 5.52}

---

# Protocol text: Inhibition of protein synthesis using Escherichia coli S30 extracts preincubated for 10 mins measured after 50 mins by luciferase reporter gene assay
# Type: functional
pIC50: −log10 of the molar value.
Recorded metric: pIC50

{"Molecule smiles": "CC[C@H]1OC(=O)[C@H](C)[C@@H](O[C@H]2C[C@@](C)(OC)[C@@H](OCCNCCOCCNc3cc4c(=O)c(C(=O)O)cn(C5CC5)c4cc3Cl)[C@H](C)O2)[C@H](C)[C@@H](O[C@@H]2O[C@H](C)C[C@H](N(C)C)[C@H]2O)[C@](C)(O)C[C@@H](C)CN(C)[C@H](C)[C@@H](O)[C@]1(C)O", "Recorded metric": "pIC50", "Operator symbol": "=", "Assay value": 6.46}
{"Molecule smiles": "O=C(O)c1cn(C2CC2)c2cc(N3CCNCC3)c(F)cc2c1=O", "Recorded metric": "pIC50", "Operator symbol": "<", "Assay value": 4.30}
{"Molecule smiles": "CC[C@H]1OC(=O)[C@H](C)[C@@H](O[C@H]2C[C@@](C)(OC)[C@@H](OCCNCCOCCNc3cc4c(=O)c(C(=O)O)cn(C5CC5)c4cc3Cl)[C@H](C)O2)[C@H](C)[C@@H](O[C@@H]2O[C@H](C)C[C@H](N(C)C)[C@H]2O)[C@](C)(O)C[C@@H](C)CN(C)[C@H](C)[C@H]2OC(=O)O[C@@]21C", "Recorded metric": "pIC50", "Operator symbol": "=", "Assay value": 6.55}
{"Molecule smiles": "CC[C@H]1OC(=O)[C@H](C)C(=O)[C@H](C)[C@@H](O[C@@H]2O[C@H](C)C[C@H](N(C)C)[C@H]2O)[C@](C)(OC)C[C@@H](C)C(=O)[C@H](C)[C@H]2N(CCCCn3cnc(-c4cccnc4)c3)C(=O)O[C@]12C", "Recorded metric": "pIC50", "Operator symbol": "=", "Assay value": 6.64}

---

As shown below, each of these molecules has a reported MIC value.
# Test system: Streptococcus pneumoniae
# Protocol text: Antibacterial activity against constitutive MLS resistant Streptococcus pneumoniae by agar microdilution method
# Type: functional

{"Molecule smiles": "CCOC(=O)c1cn(CC)c2ccc(N3CCN(CCO[C@H]4[C@H](C)O[C@@H](O[C@H]5[C@H](C)[C@@H](O[C@@H]6O[C@H](C)C[C@H](N(C)C)[C@H]6O)[C@](C)(O)C[C@@H](C)CN(C)[C@H](C)[C@H]6OC(=O)O[C@]6(C)[C@@H](CC)OC(=O)[C@@H]5C)C[C@@]4(C)OC)CC3)cc2c1=O", "MIC [µg/mL]": 64}
{"Molecule smiles": "CC[C@H]1OC(=O)[C@H](C)[C@@H](O[C@H]2C[C@@](C)(OC)[C@@H](OCCNCCOCCOCCNc3cc4c(=O)c(C(=O)O)cn(C5CC5)c4cc3Cl)[C@H](C)O2)[C@H](C)[C@@H](O[C@@H]2O[C@H](C)C[C@H](N(C)C)[C@H]2O)[C@](C)(O)C[C@@H](C)CN(C)[C@H](C)[C@H]2OC(=O)O[C@@]21C", "MIC [µg/mL]": 64}
{"Molecule smiles": "CC[C@H]1OC(=O)[C@H](C)[C@@H](O[C@H]2C[C@@](C)(OC)[C@@H](OCCNCCNc3cc4c(=O)c(C(=O)O)cn(C5CC5)c4cc3Cl)[C@H](C)O2)[C@H](C)[C@@H](O[C@@H]2O[C@H](C)C[C@H](N(C)C)[C@H]2O)[C@](C)(O)C[C@@H](C)CN(C)[C@H](C)[C@@H](O)[C@]1(C)O", "MIC [µg/mL]": 64}

---

# Test system: Streptococcus pyogenes
# Protocol text: Antibacterial activity against Streptococcus pyogenes with inducible resistance to MLS by agar microdilution method
# Assay type: functional
Recorded metric: MIC (µg/mL)

{"Molecule": "CC[C@H]1OC(=O)[C@H](C)[C@@H](O[C@H]2C[C@@](C)(OC)[C@@H](OCCCC(=O)NCCOCCNc3cc4c(cc3F)c(=O)c(C(=O)O)cn4C3CC3)[C@H](C)O2)[C@H](C)[C@@H](O[C@@H]2O[C@H](C)C[C@H](N(C)C)[C@H]2O)[C@](C)(O)C[C@@H](C)CN(C)[C@H](C)[C@@H](O)[C@]1(C)O", "Measured target": "Streptococcus pyogenes", "Assay value": 0.25}
{"Molecule": "CC[C@H]1OC(=O)[C@H](C)[C@@H](O[C@H]2C[C@@](C)(OC)[C@@H](O)[C@H](C)O2)[C@H](C)[C@@H](O[C@@H]2O[C@H](C)C[C@H](N(C)C)[C@H]2O)[C@](C)(O)C[C@@H](C)CN(C)[C@H](C)[C@@H](O)[C@]1(C)O [AZITHROMYCIN]", "Measured target": "Streptococcus pyogenes", "Assay value": 8}
{"Molecule": "CC[C@H]1OC(=O)[C@H](C)[C@@H](O[C@H]2C[C@@](C)(OC)[C@@H](OCCNCCNc3cc4c(cc3F)c(=O)c(C(=O)O)cn4C3CC3)[C@H](C)O2)[C@H](C)[C@@H](O[C@@H]2O[C@H](C)C[C@H](N(C)C)[C@H]2O)[C@](C)(O)C[C@@H](C)CN(C)[C@H](C)[C@H]2OC(=O)O[C@@]21C", "Measured target": "Streptococcus pyogenes", "Assay value": 0.25}
{"Molecule": "O=C(O)c1cn(C2CC2)c2cc(N3CCNCC3)c(F)cc2c1=O [CIPROFLOXACIN]", "Measured target": "Streptococcus pyogenes", "Assay value": 0.25}

---

# System: Streptococcus pyogenes
# Protocol text: Antibacterial activity against Streptococcus pyogenes with inducible resistance to MLS by agar microdilution method
# Assay type: functional
Recorded metric: MIC (µg/mL)

{"Molecule smiles": "CC[C@H]1OC(=O)[C@H](C)[C@@H](O[C@H]2C[C@@](C)(OC)[C@@H](OCCNCCOCCNc3cc4c(cc3F)c(=O)c(C(=O)O)cn4C3CC3)[C@H](C)O2)[C@H](C)[C@@H](O[C@@H]2O[C@H](C)C[C@H](N(C)C)[C@H]2O)[C@](C)(O)C[C@@H](C)CN(C)[C@H](C)[C@H]2OC(=O)O[C@@]21C", "Assay value": 1}
{"Molecule smiles": "CC[C@H]1OC(=O)[C@H](C)[C@@H](O[C@H]2C[C@@](C)(OC)[C@@H](OCCCC(=O)NCCNc3cc4c(cc3F)c(=O)c(C(=O)O)cn4C3CC3)[C@H](C)O2)[C@H](C)[C@@H](O[C@@H]2O[C@H](C)C[C@H](N(C)C)[C@H]2O)[C@](C)(O)C[C@@H](C)CN(C)[C@H](C)[C@@H](O)[C@]1(C)O", "Assay value": 1}
{"Molecule smiles": "CC[C@H]1OC(=O)[C@H](C)[C@@H](O[C@H]2C[C@@](C)(OC)[C@@H](OCCNCCNc3cc4c(=O)c(C(=O)O)cn(C5CC5)c4cc3Cl)[C@H](C)O2)[C@H](C)[C@@H](O[C@@H]2O[C@H](C)C[C@H](N(C)C)[C@H]2O)[C@](C)(O)C[C@@H](C)CN(C)[C@H](C)[C@H]2OC(=O)O[C@@]21C", "Assay value": 0.5}

Source: ChEMBL document CHEMBL1944570
